- targetOfAssay: Sodium-dependent serotonin transporter (Rattus norvegicus, UniProt P31652)
- Sequence (P31652 whole entry): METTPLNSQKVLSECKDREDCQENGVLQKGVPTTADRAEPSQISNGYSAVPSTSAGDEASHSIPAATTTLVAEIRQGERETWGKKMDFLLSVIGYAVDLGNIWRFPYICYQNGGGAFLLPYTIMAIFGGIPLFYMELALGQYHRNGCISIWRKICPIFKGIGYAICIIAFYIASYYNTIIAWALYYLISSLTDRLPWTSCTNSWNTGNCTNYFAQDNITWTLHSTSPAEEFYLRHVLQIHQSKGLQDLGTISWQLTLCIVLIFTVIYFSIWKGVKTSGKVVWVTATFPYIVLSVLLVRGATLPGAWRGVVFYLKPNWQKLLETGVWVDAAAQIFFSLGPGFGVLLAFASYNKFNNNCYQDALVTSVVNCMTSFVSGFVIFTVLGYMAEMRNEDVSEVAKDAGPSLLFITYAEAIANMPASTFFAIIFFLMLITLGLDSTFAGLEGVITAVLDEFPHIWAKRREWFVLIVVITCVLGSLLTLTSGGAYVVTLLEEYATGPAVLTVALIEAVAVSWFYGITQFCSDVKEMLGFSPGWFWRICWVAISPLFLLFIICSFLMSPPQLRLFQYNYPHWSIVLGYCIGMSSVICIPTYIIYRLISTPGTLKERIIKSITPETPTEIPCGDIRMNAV
- experiment: Inhibition of high affinity serotonin uptake into rat synaptosomes using [3H]5-HT
Decision: Ki beneath 20 nM gives Yes; Ki meeting or exceeding 20 nM gives No.

Dear reviewer, please state whether CNC(=O)[C@@H]1CN(C)CC[C@H]1c1ccc(Cl)cc1 has Ki strictly beneath 20 nM.
No

Dear reviewer, please state whether COC(=O)[C@@H]1CN(C)CC[C@H]1c1ccc(Cl)cc1 has Ki strictly beneath 20 nM.
No

Dear reviewer, please state whether CN1CC[C@@H](c2ccc(Cl)cc2)[C@H](C(=O)NCCCCCCCCNC(=O)[C@@H]2CN(C)CC[C@H]2c2ccc(Cl)cc2)C1 has Ki strictly beneath 20 nM.
Yes

====

- targetOfAssay: Sodium-dependent dopamine transporter (Rattus norvegicus, UniProt P23977)
- Sequence (P23977 whole entry): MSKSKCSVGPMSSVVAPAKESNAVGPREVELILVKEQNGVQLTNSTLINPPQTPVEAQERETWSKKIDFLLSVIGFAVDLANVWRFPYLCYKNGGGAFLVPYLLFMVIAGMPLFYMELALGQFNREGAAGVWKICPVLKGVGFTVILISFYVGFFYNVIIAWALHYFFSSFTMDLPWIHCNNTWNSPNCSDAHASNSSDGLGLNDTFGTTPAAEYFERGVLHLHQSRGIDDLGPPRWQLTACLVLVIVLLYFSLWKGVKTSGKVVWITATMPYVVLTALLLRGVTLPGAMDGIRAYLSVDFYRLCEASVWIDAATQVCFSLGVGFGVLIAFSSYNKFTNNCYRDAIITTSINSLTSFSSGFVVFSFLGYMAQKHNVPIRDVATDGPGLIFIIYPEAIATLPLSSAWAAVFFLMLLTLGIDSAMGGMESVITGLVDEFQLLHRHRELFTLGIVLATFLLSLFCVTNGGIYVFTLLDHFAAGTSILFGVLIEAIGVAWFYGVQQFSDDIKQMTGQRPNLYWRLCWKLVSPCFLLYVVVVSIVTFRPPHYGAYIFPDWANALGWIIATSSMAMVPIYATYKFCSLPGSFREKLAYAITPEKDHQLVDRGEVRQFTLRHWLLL
- experiment: Displacement of [3H]mazindol binding to dopamine transporter (DAT) in rat synaptosomes
- Type: subcellular, Brain
Each entry below carries its reported Ki.

Would you please look over these solved cases?
>>> val("CN1CC[C@@H](c2ccc(Cl)cc2)[C@H](C(=O)NCCCNC(=O)[C@@H]2CN(C)CC[C@H]2c2ccc(Cl)cc2)C1")
"> 6.5 µM"
>>> val("CNC(=O)[C@@H]1CN(C)CC[C@H]1c1ccc(Cl)cc1")
"> 39 µM"

Next, consider the following compound.
Consider the compound CNC(=O)[C@H]1CN(C)CC[C@@H]1c1ccc(Cl)cc1 . State its measured Ki.
> 12 µM

====

- targetOfAssay: Sodium-dependent serotonin transporter (Rattus norvegicus, UniProt P31652)
- experiment: Inhibition of high affinity serotonin uptake into rat synaptosomes using [3H]5-HT
reportedEndpoint: Ki (µM)
Field format: number, assumed µM, no unit text.

Would you please look over these solved cases?
>>> val("CN1CC[C@H](c2ccc(Cl)cc2)[C@@H](C(=O)OCCCOC(=O)[C@H]2CN(C)CC[C@@H]2c2ccc(Cl)cc2)C1")
0.73
>>> val("CN1CC[C@H](c2ccc(Cl)cc2)[C@@H](C(=O)NCCCCCNC(=O)c2ccccc2)C1")
0.494
>>> val("CN1CC[C@H](c2ccc(Cl)cc2)[C@@H](C(=O)OCCCCCOC(=O)[C@H]2CN(C)CC[C@@H]2c2ccc(Cl)cc2)C1")
0.025
>>> val("CN1CC[C@H](c2ccc(Cl)cc2)[C@@H](C(=O)NCCCNC(=O)[C@H]2CN(C)CC[C@@H]2c2ccc(Cl)cc2)C1")
0.566
>>> val("CN1CC[C@H](c2ccc(Cl)cc2)[C@@H](C(=O)NCCCCCNC(=O)[C@H]2CN(C)CC[C@@H]2c2ccc(Cl)cc2)C1")
0.007
>>> val("CN1CC[C@H](c2ccc(Cl)cc2)[C@@H](C(=O)NCCCCNC(=O)[C@H]2CN(C)CC[C@@H]2c2ccc(Cl)cc2)C1")
0.534

Next, consider the following compound.
Consider the compound CN1CC[C@H](c2ccc(Cl)cc2)[C@@H](C(=O)NCCCCCNC(=O)c2ccc(Cl)cc2)C1 . State its measured Ki.
0.159
